Molecular target: minerocorticoid receptor (MR) (Homo sapiens)
Construct: made in house; host or cells: SF21 insect cells (baculovirus)
Sequence (P08235 1-984): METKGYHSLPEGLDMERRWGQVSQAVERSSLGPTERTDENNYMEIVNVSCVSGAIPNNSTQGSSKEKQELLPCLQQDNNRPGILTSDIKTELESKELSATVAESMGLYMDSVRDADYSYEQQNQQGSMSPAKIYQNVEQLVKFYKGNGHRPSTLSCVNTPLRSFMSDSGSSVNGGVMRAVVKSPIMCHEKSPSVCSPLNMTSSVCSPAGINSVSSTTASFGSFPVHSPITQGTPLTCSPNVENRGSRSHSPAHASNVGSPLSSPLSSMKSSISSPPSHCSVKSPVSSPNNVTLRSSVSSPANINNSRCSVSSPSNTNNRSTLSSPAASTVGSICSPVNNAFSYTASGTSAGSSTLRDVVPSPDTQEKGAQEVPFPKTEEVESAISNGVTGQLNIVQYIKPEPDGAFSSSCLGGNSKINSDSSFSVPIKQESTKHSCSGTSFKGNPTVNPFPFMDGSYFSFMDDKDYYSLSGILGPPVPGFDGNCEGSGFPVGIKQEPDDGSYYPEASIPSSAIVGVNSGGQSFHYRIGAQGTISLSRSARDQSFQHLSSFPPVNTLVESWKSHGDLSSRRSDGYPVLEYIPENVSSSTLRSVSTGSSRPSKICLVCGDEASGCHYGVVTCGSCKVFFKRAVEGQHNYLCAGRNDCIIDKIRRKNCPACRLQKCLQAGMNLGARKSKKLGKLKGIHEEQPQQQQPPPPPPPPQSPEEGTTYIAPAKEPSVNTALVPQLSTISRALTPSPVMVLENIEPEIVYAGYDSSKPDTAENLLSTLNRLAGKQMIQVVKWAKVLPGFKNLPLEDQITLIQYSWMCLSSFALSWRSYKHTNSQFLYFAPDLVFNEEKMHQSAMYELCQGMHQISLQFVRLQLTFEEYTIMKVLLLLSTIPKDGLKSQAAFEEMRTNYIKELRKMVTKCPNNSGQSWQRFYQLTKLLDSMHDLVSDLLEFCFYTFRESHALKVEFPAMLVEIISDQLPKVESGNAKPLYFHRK
Experiment: soluble minerocorticoid receptor (MR) binding assay, [3H]-aldosterone competition
Settings: 3-4 nM [3H]-aldosterone, 4 °C for 18 hours; Cheng-Prusoff
parameter.measured: Ki (nM)
Answers are plain numbers, in nM.

CN(C)c1ccc(C(c2ccc(N(C)C)cc2)c2cc(Cl)ccc2Cl)cc1	2900
CNc1ccc(C(c2ccc(N(C)CCOC(C)=O)cc2)c2cc([N+](=O)[O-])ccc2Cl)cc1 (stereo not shown)	3910

Your task in this section: give Ki for each listed record.
1. CC(=O)OCCN(C)c1ccc(C(c2ccc(N(C)CCOC(C)=O)cc2)c2cc([N+](=O)[O-])ccc2Cl)cc1
2. CN(C)c1ccc(C(c2ccc(N(C)C)cc2)c2cc([N+](=O)[O-])ccc2Cl)cc1
3. CN(CCO)c1ccc(C(c2ccc(N(C)CCO)cc2)c2cc([N+](=O)[O-])ccc2Cl)cc1
4. CN(C)c1ccc(C(Sc2ccccc2)c2cc([N+](=O)[O-])ccc2Cl)cc1 (stereo not shown)
5. CN(C)c1ccc(C(c2ccc(N(C)CCO)cc2)c2cc([N+](=O)[O-])ccc2Cl)cc1 (stereo not shown)
6. CNc1ccc(C(c2ccc(N(C)C)cc2)c2cc([N+](=O)[O-])ccc2Cl)cc1 (stereo not shown)
7. CN(C)c1ccc(C(Oc2ccccc2)c2cc([N+](=O)[O-])ccc2Cl)cc1 (stereo not shown)
8. O=[N+]([O-])c1ccc(Cl)c(C(c2ccc(NCc3ccccc3)cc2)c2ccc(NCc3ccccc3)cc2)c1

Response:
[3910, 2900, 3910, 2900, 2900, 2900, 3110, 2900]
